The values you see were collected from patent US5637619A.

System: L1210 leukemia
Assay Comment: L1210 leukemia survival time in mice (ip implanted)
Format: in vivo, mice (CD2F1)
Conditions: 5 mg/kg ip once daily × 6; cures not included
This listing pairs compounds with measured %T/C (average survival time treated/control × 100).
Endpoint Label: %T/C (average survival time treated/control × 100) (%)

| Compound | Val |
| --- | --- |
| CS(=O)(=O)N(CCCl)N(C(=O)NCCCCl)S(C)(=O)=O | 111 |
| CNC(=O)N(N(CCCl)S(C)(=O)=O)S(C)(=O)=O | 234 |
| C=CCNC(=O)N(N(CCCl)S(C)(=O)=O)S(C)(=O)=O | 184 |
| CCOC(=O)C(Cc1ccccc1)NC(=O)N(N(CCCl)S(C)(=O)=O)S(C)(=O)=O (stereo not drawn) | 147 |
| CCOC(=O)CNC(=O)N(N(CCCl)S(C)(=O)=O)S(C)(=O)=O | 151 |
| CCOC(=O)C(C)NC(=O)N(N(CCCl)S(C)(=O)=O)S(C)(=O)=O (stereo not drawn) | 170 |

###

Assay Comment: Body weight change / toxicity in L1210-bearing mice
Assay type: in vivo, mice (CD2F1)
Conditions: 10 mg/kg ip once daily × 6; L1210-bearing mice
Endpoint Label: Av. Wt. Change % (%)

| Compound | Endpoint Label | Val |
| --- | --- | --- |
| CS(=O)(=O)N(CCCl)N(C(=O)NCCCCl)S(C)(=O)=O | Av. Wt. Change % | -5.6 |
| CCOC(=O)CNC(=O)N(N(CCCl)S(C)(=O)=O)S(C)(=O)=O | Av. Wt. Change % | -1.4 |
| CS(=O)(=O)N(CCCl)N(C(=O)NCCCl)S(C)(=O)=O | Av. Wt. Change % | -4.7 |
| CCOC(=O)C(Cc1ccccc1)NC(=O)N(N(CCCl)S(C)(=O)=O)S(C)(=O)=O (stereo not shown) | Av. Wt. Change % | -0.5 |
| C=CCNC(=O)N(N(CCCl)S(C)(=O)=O)S(C)(=O)=O | Av. Wt. Change % | -2.1 |
| CCOC(=O)C(C)NC(=O)N(N(CCCl)S(C)(=O)=O)S(C)(=O)=O (stereo not shown) | Av. Wt. Change % | -1.4 |
| CNC(=O)N(N(CCCl)S(C)(=O)=O)S(C)(=O)=O | Av. Wt. Change % | -5.6 |

###

Assay Comment: Body weight change / toxicity in L1210-bearing mice
Type: in vivo, mice (CD2F1)
Conditions: 20 mg/kg ip once daily × 6; L1210-bearing mice
This listing pairs compounds with measured Av. Wt. Change %.

| Compound | Av. Wt. Change % |
| --- | --- |
| CS(=O)(=O)N(CCCl)N(C(=O)NCCCl)S(C)(=O)=O [Compound III] | -10.4% |
| CCOC(=O)C(C)NC(=O)N(N(CCCl)S(C)(=O)=O)S(C)(=O)=O (stereo not shown) [Compound VIII] | -1.5% |
| CCOC(=O)CNC(=O)N(N(CCCl)S(C)(=O)=O)S(C)(=O)=O [Compound VII] | -3.7% |
| CCOC(=O)C(Cc1ccccc1)NC(=O)N(N(CCCl)S(C)(=O)=O)S(C)(=O)=O (stereo not shown) [Compound IX] | -1.9% |

###

Assay Comment: Body weight change / toxicity in L1210-bearing mice
Type: in vivo, mice (CD2F1)
Conditions: 15 mg/kg ip once daily × 6; L1210-bearing mice

| Compound | Endpoint Unit | Av. Wt. Change % |
| --- | --- | --- |
| CCOC(=O)C(C)NC(=O)N(N(CCCl)S(C)(=O)=O)S(C)(=O)=O (stereo not shown) | % | -0.5 |
| CNC(=O)N(N(CCCl)S(C)(=O)=O)S(C)(=O)=O | % | -2.1 |
| CCOC(=O)CNC(=O)N(N(CCCl)S(C)(=O)=O)S(C)(=O)=O | % | -0.5 |
| CCOC(=O)C(Cc1ccccc1)NC(=O)N(N(CCCl)S(C)(=O)=O)S(C)(=O)=O (stereo not shown) | % | -1.9 |
| CS(=O)(=O)N(CCCl)N(C(=O)NCCCl)S(C)(=O)=O | % | -4.0 |
| C=CCNC(=O)N(N(CCCl)S(C)(=O)=O)S(C)(=O)=O | % | -2.9 |
| CS(=O)(=O)N(CCCl)N(C(=O)NCCCCl)S(C)(=O)=O | % | -8.8 |
